System: TRZAWR (Wheat, Winter, cv Riband)
Assay: Postemergence herbicidal evaluation
Type: in vivo, Triticum aestivum
Settings: postemergence, rate 0.0620 kg/ha
// assign 1 if TRZAWR herbicidal rating falls strictly below 5, else 0 (ties count as 0)

Input Cn1c(C(F)(F)F)cc(=O)n(-c2ccc3snc(C4=NCCO4)c3c2)c1=O ; condition: TRZAWR herbicidal rating strictly below 5. Does it hold?
1

# check: TRZAWR herbicidal rating < 5 for Cn1c(C(F)(F)F)cc(=O)n(-c2ccc3snc(C4OCC(C[S+](C)[O-])O4)c3c2)c1=O (stereo not drawn)
1

Criterion: TRZAWR herbicidal rating strictly below 5. Is it met by Cn1c(C(F)(F)F)cc(=O)n(-c2ccc3snc(-c4ccoc4)c3c2)c1=O ?
1

Quick check: TRZAWR herbicidal rating of Cn1c(C(F)(F)F)cc(=O)n(-c2ccc3snc(C4OC(=O)C(C)(C)O4)c3c2)c1=O (stereo not drawn) under 5?
1

TRZAWR herbicidal rating under 5? Item: CC(C)C1COC(c2nsc3ccc(-n4c(=O)cc(C(F)(F)F)n(C)c4=O)cc23)=N1 (stereo not drawn)
1

In the record for CCCC1COC(c2nsc3ccc(-n4c(=O)cc(C(F)(F)F)n(C)c4=O)cc23)O1 (stereo not drawn) , is TRZAWR herbicidal rating less than 5?
1

# check: TRZAWR herbicidal rating < 5 for CSCC1COC(c2nsc3ccc(-n4c(=O)cc(C(F)(F)F)n(C)c4=O)cc23)O1 (stereo not drawn)
0

Field: below-cutoff. Rule: recorded TRZAWR herbicidal rating strictly less than 5. Subject: C[C@@H]1OC(c2nsc3cc(F)c(-n4c(=O)cc(C(F)(F)F)n(C)c4=O)cc23)O[C@@H]1C (stereo partly drawn)
1

# strict comparison: is reported TRZAWR herbicidal rating < 5? input = Cn1c(C(F)(F)F)cc(=O)n(-c2ccc3snc(C4OCCCS4)c3c2)c1=O (stereo not drawn)
0
